Biological target: Bcat-Halo (UniProt P35222)
Sequence (P35222 whole entry): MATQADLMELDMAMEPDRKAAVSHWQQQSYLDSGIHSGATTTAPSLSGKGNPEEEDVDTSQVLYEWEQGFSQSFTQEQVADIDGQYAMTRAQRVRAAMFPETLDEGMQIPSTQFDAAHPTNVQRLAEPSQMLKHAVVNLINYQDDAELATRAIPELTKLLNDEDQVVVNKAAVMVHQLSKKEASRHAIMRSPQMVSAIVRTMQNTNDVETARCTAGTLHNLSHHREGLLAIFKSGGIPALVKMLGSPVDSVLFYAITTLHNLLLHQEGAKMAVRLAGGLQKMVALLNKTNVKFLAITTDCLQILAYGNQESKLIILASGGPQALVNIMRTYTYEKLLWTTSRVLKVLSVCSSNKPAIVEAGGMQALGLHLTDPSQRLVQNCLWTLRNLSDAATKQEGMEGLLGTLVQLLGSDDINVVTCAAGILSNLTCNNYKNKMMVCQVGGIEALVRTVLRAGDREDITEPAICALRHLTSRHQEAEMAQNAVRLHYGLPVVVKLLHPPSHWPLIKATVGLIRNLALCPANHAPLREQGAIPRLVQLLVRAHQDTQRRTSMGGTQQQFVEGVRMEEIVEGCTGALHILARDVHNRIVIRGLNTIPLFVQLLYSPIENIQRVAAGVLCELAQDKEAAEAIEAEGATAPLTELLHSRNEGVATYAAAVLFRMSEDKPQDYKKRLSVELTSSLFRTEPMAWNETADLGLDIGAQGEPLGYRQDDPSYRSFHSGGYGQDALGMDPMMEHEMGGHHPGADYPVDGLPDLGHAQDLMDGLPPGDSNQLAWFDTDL
Assay: NanoBRET absolute IC50 in HEK293 cells; Bcat-Halo, competitor TCF4-Luc
Starred links: 1 amine or outer side, 2 acyl side, 3 side chain; linkers in the order of their positions; H or OH if unused. Positions of bridges follow the written chain, without caps; N, C: chain ends. Non-standard residues stand in square brackets, D forms with d. Primed or numbered codes have the meaning given here. PyrS2″ = (S)-3-amino-1-((pent-4-en-1-yloxy)carbonyl)pyrrolidine-3-carboxylic acid (stapling residue), C=CCCCOC(=O)N1CC[C@@](N[*:1])(C(=O)[*:2])C1; B5(4) = 2,2-bis(4-pentenyl)glycine = 2-amino-2-(pent-4-en-1-yl)hept-6-enoic acid (stitching residue), C=CCCCC(CCCC=C)(N[*:1])C(=O)[*:2]; B5(5) = 2,2-bis(4-pentenyl)glycine, 2-amino-2-(pent-4-en-1-yl)hept-6-enoic acid (stitching residue), C=CCCCC(CCCC=C)(N[*:1])C(=O)[*:2]; Phe(2-Cl) = N[C@@H](Cc1ccccc1Cl)C(=O)O; Bta = N[C@@H](Cc1csc2ccccc12)C(=O)O; αAllylPro = C=CC[C@@]1(C(=O)O)CCCN1; tBuAla = CC(C)(C)C[C@H](N)C(=O)O; 3Thi = N[C@@H](Cc1ccsc1)C(=O)O
In this section we review reported IC50 values for a set of binders.
State just the number; it will be interpreted in µM.

Request: Item under review: Ac-[αAllylPro]D[tBuAla][B5(4)]DQAAFL[PyrS2″][3Thi][Bta]Q-NH2 (staple 1-4, 4-11) [I-1440] . Reported IC50?
Result: 20.7

Continuing:
Request: Item under review: Ac-[αAllylPro]D[tBuAla][B5(5)]DDAAFL[PyrS2″][Phe(2-Cl)][Bta][dT]-NH2 (staple 1-4, 4-11) [I-1035] . Reported IC50?
Result: 10.2

Request: Item under review: Ac-[αAllylPro]D[tBuAla][B5(5)]DDAAFT[PyrS2″][Phe(2-Cl)][Bta][dT]-NH2 (staple 1-4, 4-11) [I-1033] . Reported IC50?
Result: 8.6

Request: Item under review: Ac-[αAllylPro]D[tBuAla][B5(5)]DEAAFT[PyrS2″][Phe(2-Cl)][Bta][dT]-NH2 (staple 1-4, 4-11) [I-1037] . Reported IC50?
Result: 4.4
